Source listed as patent US20240025971A1.

Could you please report measured Optical Density (OD; 450 nm) for the items listed next?
Target: T1, SARS-CoV-2 Spike (S) trimer (SARS-CoV-2, UniProt P0DTC2 14-1208)
T1 construct: also called Spike trimer
Assay: ELISA, S trimer coated, 1:50 dilution
Your reply should be a number followed by the unit it is expressed in.

Challenge: What value of measured Optical Density (OD; 450 nm) is listed for AB-009110 (antibody, V domains shown, human IgG1) VH: QVQLVQSGAEVKEPGASVKVSCNASGYIFTSYGISWVRQAPGQGLEWVGWISGNNGNTNYAQKFQGRVTLTTDTSTSTAYLELRSLTSADTGVYFCARARLPSAYWGPGTLLTVSS VL: EILLTQSPATLSVSPGERGSLSCRASQSVGTNLAWYQQKPGQAPRLLIYGASARATGIPARFSGSGSGTEFTLTISSLQSEDFGVYYCQQYNDWPPWTFGQGTKVEIK ?
Response given: 0.081 OD450

Challenge: What value of measured Optical Density (OD; 450 nm) is listed for AB-009666 (antibody, V domains shown, human IgG1) VH: EVQLVESGGGLVQPGGSLRLSCAASGFTFSSYDMHWVRQATGKGLEWVSTIGTAGDTYYPGSVKGRFTISRENAKNSLYLQMNSLRAEDTAVYYCARVNYDSSGYPTYWYFDLWGRGTLVTVSS VL: DIQMTQSPSSLSASVGDRVTITCRASQSISRYLNWYQQKPGKAPKLLIYAASSLQSGVPSRFSGSGSGTDFTLTISSLQPEDFATYNCQQSYSSPPWTFGQGTKVEIK ?
Response given: 2.76 OD450
